- protocol-description: Tmax in cynomolgus monkey at 3 mg/kg, po measured upto 24 hrs
- Format: ADME, organism-based, Macaca fascicularis
- condition-details: in vivo
assay-endpoint: Tmax

Given CCOP(=O)(Cn1ccc(NC(=O)c2cc(Oc3cnc(C(=O)N4CCC4)cn3)cc(OC(C)C)c2)n1)OCC , state its recorded Tmax.
1.3 h

* * *

- protocol-description: Tmax in Beagle dog at 3 mg/kg, po measured upto 24 hrs
- Assay type: ADME, organism-based, Canis lupus familiaris
- condition-details: in vivo
assay-endpoint: Tmax (min)
API: value field is a number in min; no unit string.

Given CCOP(=O)(Cn1ccc(NC(=O)c2cc(Oc3cnc(C(=O)N4CCC4)cn3)cc(OC(C)C)c2)n1)OCC , state its recorded Tmax.
48

Data provenance: ChEMBL document CHEMBL5046279
